Target: HNF4alpha8 (COS-7 nuclear extract) (Homo sapiens, UniProt P41235-5 1-452)
Sequence: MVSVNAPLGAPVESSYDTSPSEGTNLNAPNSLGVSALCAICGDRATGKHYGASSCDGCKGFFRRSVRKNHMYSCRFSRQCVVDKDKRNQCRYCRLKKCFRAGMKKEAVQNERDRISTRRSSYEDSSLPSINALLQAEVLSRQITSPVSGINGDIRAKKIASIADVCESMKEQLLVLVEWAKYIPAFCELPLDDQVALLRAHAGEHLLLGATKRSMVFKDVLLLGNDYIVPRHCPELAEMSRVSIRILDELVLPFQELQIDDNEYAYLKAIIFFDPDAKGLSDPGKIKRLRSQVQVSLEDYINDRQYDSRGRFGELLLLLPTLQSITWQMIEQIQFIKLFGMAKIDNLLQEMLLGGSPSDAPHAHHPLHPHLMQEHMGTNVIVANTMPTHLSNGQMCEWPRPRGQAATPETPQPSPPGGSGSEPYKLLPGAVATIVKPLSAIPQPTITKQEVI
Assay: protein-binding microarray; COS-7 nuclear extract on double-stranded Agilent 4x180k PBM; binding buffer, salt, pH and temperature not given in the material; high values mean tight binding
Conditions: chain copies: 2; label: 3' end of strand 1 on the slide; dsDNA, one strand shown
Over roughly 18,000 sequences, “log2 normalized intensity” has its median near 0.36; the highest 2% begin near 7.3. Many of the other results were omitted from the sample, so the highest values are more common in it than they were.
measured quantity: binding signal

Problem: Consider the sequence shown here: TCTTTCAGTGTTGACCTTTGAACATTTCTTGCCTAGGGAGATTAGAGTATCGGTCGA What is its recorded binding signal?
Result: 8.97 log2 normalized intensity

Problem: What measured binding signal goes with CAGAGGCTTCCTCTTTGGTGCAAAGGTCAGGCCTAGGGAGATTAGAGTATCGGTCGA ?
Result: 7.47 log2 normalized intensity

Problem: // binding signal lookup, key: TCACTGACCTCTGCCCTACTGTATATCCTGGCCTAGGGAGATTAGAGTATCGGTCGA
Result: 2.89 log2 normalized intensity

Problem: Bench note: what binding signal did AAAGTTTCCTCTCCTGCCCTACTCCCTTAAGCCTAGGGAGATTAGAGTATCGGTCGA show?
Result: 2.63 log2 normalized intensity

Problem: Param item = CCTTTTTTGAAGGTTAAAGTCCATTTTTGAGCCTAGGGAGATTAGAGTATCGGTCGA ; retrieve measured binding signal.
Result: 7.52 log2 normalized intensity

Problem: Entry under review: TCTTGGAATGTTGAACCTTTCTTTGTCTTTGCCTAGGGAGATTAGAGTATCGGTCGA . Reported binding signal?
Result: 2.31 log2 normalized intensity

Problem: What value of binding signal has been reported for the following sequence? TTTGAAGGTTAAAGTCCATTTTTGAGGACCGCCTAGGGAGATTAGAGTATCGGTCGA
Result: 6.47 log2 normalized intensity

Problem: Which measured binding signal value corresponds to ATGGTGACCATGTGATGTGAAGAGTGTGGAGCCTAGGGAGATTAGAGTATCGGTCGA ?
Result: 1.31 log2 normalized intensity

Problem: Consider the sequence shown here: CCCTGCCTGACCTGCCCTTTGTCCCTCCTGGCCTAGGGAGATTAGAGTATCGGTCGA What is its recorded binding signal?
Result: 5.06 log2 normalized intensity

Problem: // query binding signal value for entry ATGGTTAAGGTGAAAGTCCGACTTTTAAGAGCCTAGGGAGATTAGAGTATCGGTCGA
Result: 4.06 log2 normalized intensity

Problem: // returns reported binding signal for input TATCTTCTTTCAGTGTTGACCTTTGAACATGCCTAGGGAGATTAGAGTATCGGTCGA
Result: 9.23 log2 normalized intensity

Problem: For the sequence TTCTGCCCCTTGCTCCTGCTTGCTGGCTTTGCCTAGGGAGATTAGAGTATCGGTCGA , what binding signal is on record?
Result: 1.35 log2 normalized intensity

Problem: Form field: reported binding signal of CTGCCACATTTTTATCCTTTTTTGAAGGTTGCCTAGGGAGATTAGAGTATCGGTCGA
Result: 2 log2 normalized intensity

Problem: Which binding signal reading was recorded for the sequence GACCTTTGCCCTCTGGCCCTTAAAGGCTTTGCCTAGGGAGATTAGAGTATCGGTCGA ?
Result: 7.8 log2 normalized intensity
